Target: T1, PUF4 RNA-binding domain (Saccharomyces cerevisiae, UniProt P25339 537-888)
T1 sequence: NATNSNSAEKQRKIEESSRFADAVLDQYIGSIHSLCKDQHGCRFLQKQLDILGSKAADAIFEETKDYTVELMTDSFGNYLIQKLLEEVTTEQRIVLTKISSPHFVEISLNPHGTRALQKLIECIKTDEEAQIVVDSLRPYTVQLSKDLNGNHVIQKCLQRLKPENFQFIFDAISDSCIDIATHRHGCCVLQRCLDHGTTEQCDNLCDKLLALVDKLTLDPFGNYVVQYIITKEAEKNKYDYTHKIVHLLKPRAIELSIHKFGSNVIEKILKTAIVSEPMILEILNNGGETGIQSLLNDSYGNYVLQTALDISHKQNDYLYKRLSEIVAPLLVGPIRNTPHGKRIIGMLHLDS
Procedure Text: Mg; RNA-MaP; 20 mM Na-HEPES pH 7.4, 30 mM KOAc, 0.75 mM MgCl2, 0.1% Tween-20, 5% glycerol, 0.1 mg/mL BSA, 2 mM DTT; 25 C; 0.0125-409.6 nM protein
Applied Conditions: tags: N-His6-TEV cleaved; C-SNAP kept, Cy3B-labelled; label: tethered on chip by stalled RNA polymerase
pKd: −log10 of the molar value.
The label depends only on pKd: rule met if it is at least 7, rule not met if it is smaller.

{"Binder": "Ic_S4_P4E.1_K4.1_C4.1_H4.1_A4.1_[A6C]_F4.1_[T8A]_[A9G]_T4.1 (ssRNA) RNA: UUUGACAACUGAUCGUUCUUUCUUGUAUCUAGUUCUUUCUCGAUCAGUUGUCUUU", "Assigned Class": "rule met"}
{"Binder": "Id_ii_S4_P4E.3_K4.2_C4.2_[C-2T]_[T-1A]_H4.2_A4.1_F4.1_T4.2_[G10A]_[T11A] (ssRNA) RNA: UUUGACAACUGAUCGUUCUUUCUUAUAUAUAUUAAAUUCUUUCUCGAUCAGUUGUCUUU", "Assigned Class": "rule met"}
{"Binder": "UCUCUUUGUAAAGCCAUCUCUU (ssRNA) [Ic_S1_P5E.1_K5.1_C5.1_H5.1_A5.1_[T5A]_[T6A]_[A7G]_F5.1_[T8C]_[T9C]_T5.1]", "Assigned Class": "rule not met"}
{"Binder": "UCUCUUUGUAUCAUGUCUCUU (ssRNA) [Ic_S1_P4E.1_K4.1_C4.1_H4.1_A4.1_[A6C]_[T7A]_F4.1_[A9G]_T4.1]", "Assigned Class": "rule met"}
{"Binder": "UCUCUUUGUACCUAUUCUCUU (ssRNA) [Ic_S1_P4E.1_K4.1_C4.1_H4.1_A4.1_[T5C]_[A6C]_F4.1_[T8A]_[A9T]_T4.1]", "Assigned Class": "rule met"}

Lookup: Item UCUCUUCGUAUAUAUAACUCUCUU (ssRNA) [Id_ii_S1_P3E.3_K3.2_C3.2_[T-1G]_H3.2_A3.1_F3.1_T3.2_[T9A]_[A10C]] with pKd of 7 or above?
Found: rule not met

Lookup: And the next one, Id_iii_S2_P3E.6_K3.2_C3.3_H3.2_A3.1_F3.1_T3.2_[A10T] (ssRNA) RNA: UUUGAUUAAUAUGAUAUCGUUCUUUCUUCUUAUAUAUAUUUUCUUUCUCGAUAUCAUAUUAAUCUUU ?
Found: rule met

All values here come from paper PMC9352680.
